All figures here come from ChEMBL document CHEMBL5113485.

# EXPERIMENTAL TARGET: Alpha-1A adrenergic receptor (Homo sapiens)
# Sequence (P35348 whole entry): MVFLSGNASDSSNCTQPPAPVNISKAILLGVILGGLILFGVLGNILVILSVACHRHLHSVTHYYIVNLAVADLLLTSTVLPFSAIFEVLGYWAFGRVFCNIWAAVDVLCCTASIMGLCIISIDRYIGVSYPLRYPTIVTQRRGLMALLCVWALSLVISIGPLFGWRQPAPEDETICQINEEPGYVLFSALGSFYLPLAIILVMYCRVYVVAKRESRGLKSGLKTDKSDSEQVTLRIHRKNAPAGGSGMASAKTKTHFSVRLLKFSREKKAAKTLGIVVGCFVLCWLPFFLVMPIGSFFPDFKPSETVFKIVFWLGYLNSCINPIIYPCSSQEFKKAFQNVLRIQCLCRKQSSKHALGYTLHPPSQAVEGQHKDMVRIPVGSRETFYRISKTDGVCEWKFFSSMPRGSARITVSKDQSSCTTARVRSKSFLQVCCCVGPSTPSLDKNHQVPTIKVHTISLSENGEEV
# ASSAY OVERVIEW: Displacement of [3H]prazosin from recombinant human alpha1A receptor measured after 60 mins by scintillation counting analysis
MEASUREMENT KIND: Ki

{"QUERY SMILES": "[2H]c1c([2H])c([2H])c([C@@H]2C[C@@H](N3CCN(C([2H])([2H])[2H])C(C)(C)C3)c3cc(Cl)ccc32)c([2H])c1[2H]", "EXPERIMENTAL TARGET": "Alpha-1A adrenergic receptor (Homo sapiens)", "Ki": "3.4 nM"}

The compound listed as `[2H]c1c([2H])c([2H])c([C@@H]2C[C@@H](N3CCNC(C)(C)C3)c3cc(Cl)ccc32)c([2H])c1[2H]` shows Ki equal to 13 nM
